test_details: Phase I pharmacokinetics after single IV bolus
Format: in vivo
condition_details: both sexes, human, plasma, iv, 0.06 mg/kg, single IV bolus 0.06 mg/kg (n = 6), read-out: Cmax, Geometric Mean
metric_name: Cmax (ng/mL)
API: value field is a number in ng/mL; no unit string.

Fill in Cmax for record COc1ccc(C[C@@H]2c3cc(OC)c(OC)cc3CC[N@@+]2(C)CCCOC(=O)/C=C/C(=O)OCCC[N@+]2(C)CCc3cc(OC)c(OC)cc3[C@H]2Cc2ccc(OC)c(OC)c2)cc1OC.[Cl-].[Cl-] [RP1000]
2600

###

test_details: Phase I pharmacokinetics after single IV bolus
Assay type: in vivo
condition_details: both sexes, human, plasma, iv, 0.14 mg/kg, single IV bolus 0.14 mg/kg (n = 4), read-out: Vss (volume at steady state), Geometric Mean
metric_name: Vd (L)
API: value field is a number in L; no unit string.

Fill in Vd for record COc1ccc(C[C@@H]2c3cc(OC)c(OC)cc3CC[N@@+]2(C)CCCOC(=O)/C=C/C(=O)OCCC[N@+]2(C)CCc3cc(OC)c(OC)cc3[C@H]2Cc2ccc(OC)c(OC)c2)cc1OC.[Cl-].[Cl-] [RP1000]
7.84

###

test_details: Phase I pharmacokinetics after single IV bolus
Assay type: in vivo
condition_details: both sexes, human, plasma, iv, 0.1 mg/kg, single IV bolus 0.10 mg/kg (n = 6), read-out: t1/2 (terminal elimination half-life), Mean (SD)
metric_name: half-life (min)
API: value field is a number in min; no unit string.

Fill in half-life for record "COc1ccc(C[C@@H]2c3cc(OC)c(OC)cc3CC[N@@+]2(C)CCCOC(=O)/C=C/C(=O)OCCC[N@+]2(C)CCc3cc(OC)c(OC)cc3[C@H]2Cc2ccc(OC)c(OC)c2)cc1OC.[Cl-].[Cl-]"
24

###

test_details: Phase I pharmacokinetics after single IV bolus
Assay type: in vivo
condition_details: both sexes, human, plasma, iv, 0.14 mg/kg, single IV bolus 0.14 mg/kg (n = 4), read-out: Cmax, Geometric Mean
metric_name: Cmax (ng/mL)
API: value field is a number in ng/mL; no unit string.

Fill in Cmax for record "COc1ccc(C[C@@H]2c3cc(OC)c(OC)cc3CC[N@@+]2(C)CCCOC(=O)/C=C/C(=O)OCCC[N@+]2(C)CCc3cc(OC)c(OC)cc3[C@H]2Cc2ccc(OC)c(OC)c2)cc1OC.[Cl-].[Cl-]"
9120

###

test_details: Phase I pharmacokinetics after single IV bolus
Format: in vivo
condition_details: both sexes, human, plasma, iv, 0.14 mg/kg, single IV bolus 0.14 mg/kg (n = 4), read-out: AUClast, Geometric Mean (converted)
metric_name: AUC(0-t) (ng·h/mL)
API: value field is a number in ng·h/mL; no unit string.

Fill in AUC(0-t) for record COc1ccc(C[C@@H]2c3cc(OC)c(OC)cc3CC[N@@+]2(C)CCCOC(=O)/C=C/C(=O)OCCC[N@+]2(C)CCc3cc(OC)c(OC)cc3[C@H]2Cc2ccc(OC)c(OC)c2)cc1OC.[Cl-].[Cl-] [RP1000]
507

###

test_details: Phase I pharmacokinetics after single IV bolus
Assay type: in vivo
condition_details: both sexes, human, plasma, iv, 0.1 mg/kg, single IV bolus 0.10 mg/kg (n = 6), read-out: Cmax, Geometric Mean
metric_name: Cmax (ng/mL)
API: value field is a number in ng/mL; no unit string.

Fill in Cmax for record COc1ccc(C[C@@H]2c3cc(OC)c(OC)cc3CC[N@@+]2(C)CCCOC(=O)/C=C/C(=O)OCCC[N@+]2(C)CCc3cc(OC)c(OC)cc3[C@H]2Cc2ccc(OC)c(OC)c2)cc1OC.[Cl-].[Cl-] [RP1000]
5020

###

test_details: Phase I pharmacokinetics after single IV bolus
Format: in vivo
condition_details: both sexes, human, plasma, iv, 0.04 mg/kg, single IV bolus 0.04 mg/kg (n = 6), read-out: AUClast, Geometric Mean (converted)
metric_name: AUC(0-t)
# include the unit after the value

Fill in AUC(0-t) for record COc1ccc(C[C@@H]2c3cc(OC)c(OC)cc3CC[N@@+]2(C)CCCOC(=O)/C=C/C(=O)OCCC[N@+]2(C)CCc3cc(OC)c(OC)cc3[C@H]2Cc2ccc(OC)c(OC)c2)cc1OC.[Cl-].[Cl-] [RP1000]
132 ng·h/mL

###

test_details: Phase I pharmacokinetics after single IV bolus
Format: in vivo
condition_details: both sexes, human, plasma, iv, 0.1 mg/kg, single IV bolus 0.10 mg/kg (n = 6), read-out: Cmax, Mean
metric_name: Cmax (ng/mL)
API: value field is a number in ng/mL; no unit string.

Fill in Cmax for record "COc1ccc(C[C@@H]2c3cc(OC)c(OC)cc3CC[N@@+]2(C)CCCOC(=O)/C=C/C(=O)OCCC[N@+]2(C)CCc3cc(OC)c(OC)cc3[C@H]2Cc2ccc(OC)c(OC)c2)cc1OC.[Cl-].[Cl-]"
5270

###

test_details: Phase I pharmacokinetics after single IV bolus
Format: in vivo
condition_details: both sexes, human, plasma, iv, 0.14 mg/kg, single IV bolus 0.14 mg/kg (n = 4), read-out: Vss (volume at steady state), Mean
metric_name: Vd (L)
API: value field is a number in L; no unit string.

Fill in Vd for record "COc1ccc(C[C@@H]2c3cc(OC)c(OC)cc3CC[N@@+]2(C)CCCOC(=O)/C=C/C(=O)OCCC[N@+]2(C)CCc3cc(OC)c(OC)cc3[C@H]2Cc2ccc(OC)c(OC)c2)cc1OC.[Cl-].[Cl-]"
7.96

###

test_details: Phase I pharmacokinetics after single IV bolus
Format: in vivo
condition_details: both sexes, human, plasma, iv, 0.04 mg/kg, single IV bolus 0.04 mg/kg (n = 6), read-out: Vss (volume at steady state), Mean
metric_name: Vd (L)
API: value field is a number in L; no unit string.

Fill in Vd for record COc1ccc(C[C@@H]2c3cc(OC)c(OC)cc3CC[N@@+]2(C)CCCOC(=O)/C=C/C(=O)OCCC[N@+]2(C)CCc3cc(OC)c(OC)cc3[C@H]2Cc2ccc(OC)c(OC)c2)cc1OC.[Cl-].[Cl-] [RP1000]
9.54

###

test_details: Phase I pharmacokinetics after single IV bolus
Format: in vivo
condition_details: both sexes, human, plasma, iv, 0.14 mg/kg, single IV bolus 0.14 mg/kg (n = 4), read-out: CL (clearance), Geometric Mean
metric_name: clearance (mL/min)
API: value field is a number in mL/min; no unit string.

Fill in clearance for record "COc1ccc(C[C@@H]2c3cc(OC)c(OC)cc3CC[N@@+]2(C)CCCOC(=O)/C=C/C(=O)OCCC[N@+]2(C)CCc3cc(OC)c(OC)cc3[C@H]2Cc2ccc(OC)c(OC)c2)cc1OC.[Cl-].[Cl-]"
366

###

test_details: Phase I pharmacokinetics after single IV bolus
Type: in vivo
condition_details: both sexes, human, plasma, iv, 0.06 mg/kg, single IV bolus 0.06 mg/kg (n = 6), read-out: Vss (volume at steady state), Geometric Mean
metric_name: Vd (L)
API: value field is a number in L; no unit string.

Fill in Vd for record "COc1ccc(C[C@@H]2c3cc(OC)c(OC)cc3CC[N@@+]2(C)CCCOC(=O)/C=C/C(=O)OCCC[N@+]2(C)CCc3cc(OC)c(OC)cc3[C@H]2Cc2ccc(OC)c(OC)c2)cc1OC.[Cl-].[Cl-]"
8.8

###

test_details: Phase I pharmacokinetics after single IV bolus
Format: in vivo
condition_details: both sexes, human, plasma, iv, 0.04 mg/kg, single IV bolus 0.04 mg/kg (n = 6), read-out: t1/2 (terminal elimination half-life), Mean (SD)
metric_name: half-life
# include the unit after the value

Fill in half-life for record "COc1ccc(C[C@@H]2c3cc(OC)c(OC)cc3CC[N@@+]2(C)CCCOC(=O)/C=C/C(=O)OCCC[N@+]2(C)CCc3cc(OC)c(OC)cc3[C@H]2Cc2ccc(OC)c(OC)c2)cc1OC.[Cl-].[Cl-]"
29 min

###

test_details: Phase I pharmacokinetics after single IV bolus
Assay type: in vivo
condition_details: both sexes, human, plasma, iv, 0.04 mg/kg, single IV bolus 0.04 mg/kg (n = 6), read-out: Vss (volume at steady state), Geometric Mean
metric_name: Vd (L)
API: value field is a number in L; no unit string.

Fill in Vd for record "COc1ccc(C[C@@H]2c3cc(OC)c(OC)cc3CC[N@@+]2(C)CCCOC(=O)/C=C/C(=O)OCCC[N@+]2(C)CCc3cc(OC)c(OC)cc3[C@H]2Cc2ccc(OC)c(OC)c2)cc1OC.[Cl-].[Cl-]"
9.33

###

test_details: Phase I pharmacokinetics after single IV bolus
Assay type: in vivo
condition_details: both sexes, human, plasma, iv, 0.04 mg/kg, single IV bolus 0.04 mg/kg (n = 6), read-out: t1/2 (terminal elimination half-life), Geometric Mean
metric_name: half-life (min)
API: value field is a number in min; no unit string.

Fill in half-life for record COc1ccc(C[C@@H]2c3cc(OC)c(OC)cc3CC[N@@+]2(C)CCCOC(=O)/C=C/C(=O)OCCC[N@+]2(C)CCc3cc(OC)c(OC)cc3[C@H]2Cc2ccc(OC)c(OC)c2)cc1OC.[Cl-].[Cl-] [RP1000]
27.4
